# Assay explanation: Cytotoxicity against mouse Hepa-1c1c7 cells assessed as cell survival at 25 uM after 48 hrs by MTT assay
# Type: cell-based
# Condition details: read-out: Activity
Give measured viability at 48 h, 25 µM for each item. Keep answers brief.
Give bare numbers, in %.

Previously resolved entries follow.
O=C1/C(=C/c2cccc(O)c2)Oc2cc(O)ccc21 :: 106
O=C1/C(=C/c2ccccc2O)Oc2ccccc21 :: 102
O=C1Oc2ccc(O)cc2/C1=C/c1ccc(F)cc1 :: 121
O=C1/C(=C/c2cccc(Cl)c2)Oc2cc(O)cc(O)c21 :: 86
COc1cc(OC)c2c(c1)O/C(=C\c1ccc(N3CCN(C)CC3)cc1)C2=O :: 89
O=C1Oc2ccc(O)cc2/C1=C/c1ccc(O)cc1 :: 101
COc1cc(OC)c2c(c1)O/C(=C\c1cccnc1)C2=O :: 98
O=C1/C(=C/c2ccccc2Cl)Oc2ccc(O)cc21 :: 94

Batch of 4 molecules: report viability at 48 h, 25 µM for each.
1. O=C1Oc2ccc(O)cc2/C1=C/c1ccccc1Cl
2. N#Cc1ccc(/C=C2\Oc3cc(O)ccc3C2=O)cc1
3. COc1cc(OC)c2c(c1)OC(=O)/C2=C\c1ccccc1
4. COc1ccc(/C=C2\C(=O)Oc3ccc(O)cc32)cc1

1. 87
2. 90
3. 96
4. 118

----------
Field: fold change (FC). Provide a value for each of the compounds that follow.
# Assay explanation: Induction of NQO1 activity in mouse Hepa-1c1c7 cells at 5 uM after 48 hrs relative to control
Give bare numbers.

For orientation, consider the following solved cases.
O=C1/C(=C/c2cccc(Cl)c2)Oc2cc(O)cc(O)c21 :: 1.45
COc1cc(OC)c2c(c1)O/C(=C\c1ccncc1)C2=O :: 1.82
O=C1/C(=C/c2ccccc2O)Oc2ccc(O)cc21 :: 2.65
N#Cc1ccc(/C=C2\Oc3ccc(O)cc3C2=O)cc1 :: 1.3
O=C1/C(=C/c2ccc(O)cc2)Oc2ccc(O)cc21 :: 1.22
O=C1/C(=C/c2cccc(O)c2)Oc2ccc(O)cc21 :: 1.29
COc1cc(OC)c2c(c1)OC(=O)/C2=C\c1ccc(Cl)cc1 :: 1.42
COc1cc(/C=C2\Oc3cc(O)cc(O)c3C2=O)cc(OC)c1OC :: 1.47

Hi, could you look up fold change (FC) for each item in my list?
1. COc1ccccc1/C=C1\C(=O)Oc2ccc(O)cc21
2. O=C1/C(=C/c2cccc(Cl)c2)Oc2cc(O)ccc21
3. COc1cc(OC)c2c(c1)O/C(=C\c1ccc(Cl)cc1)C2=O
4. COc1cc(OC)c2c(c1)O/C(=C\c1ccc([N+](=O)[O-])cc1)C2=O
5. COc1cc(OC)c2c(c1)O/C(=C\c1ccccc1C)C2=O
6. O=C1Oc2ccc(O)cc2/C1=C/c1cccc(F)c1

[1.01, 2.85, 2.13, 1.61, 1.79, 1.14]

Hi, could you look up fold change (FC) for each item in my list?
1. COc1cc(OC)c2c(c1)O/C(=C\c1ccc(C(F)(F)F)cc1)C2=O
2. O=C1/C(=C/c2cccc(Cl)c2)Oc2ccc(O)cc21
3. COc1cc(OC)c2c(c1)OC(=O)/C2=C\c1ccccc1Cl
4. COc1cc(OC)c2c(c1)O/C(=C\c1ccccc1)C2=O
5. COc1cc(OC)c2c(c1)OC(=O)/C2=C\c1ccccc1

[1.08, 4.68, 2.12, 7.7, 1.43]

Cited source for all entries: ChEMBL document CHEMBL1177857
